# assayed.target: S. Agalactiae DltA (Streptococcus agalactiae serotype III (strain NEM316), UniProt Q8VM67)
# procedure.summary: in vitro DltA activity assay (luminescence), S. agalactiae DltA
# Type: biochemical
# test.conditions: recombinant DltA, 30 min pre-incubation, 0.5 mM D-Alanine, 0.5-5 μM ATP; read-out: S. Agalactiae DltA IC50
# Lookup of reported log10 IC50 keyed by entry
measurement.name: log10 IC50 (log10 of the value in nM)

compound	log10 IC50
O=C(O)c1c(N2CC[C@H](CO)C2)cc(-c2ccc3c(c2)ncn3C2CCCCC2)c2nc[nH]c12 [Example 55]	2.88
CN(C)CCCN(C)c1cc(-c2ccc3c(c2)ncn3C2CCCCC2)c2nc[nH]c2c1C(N)=O [Example 122]	3.26
CN(C)CCN(C)c1cc(-c2ccc3c(c2)ncn3-c2ccccc2)c2nc[nH]c2c1C(N)=O [Example 204]	3.15
CN(CCN1CCCC1)c1cc(-c2cnc3c(c2)CCCO3)c2nc[nH]c2c1C(N)=O [Example 181]	2.26
CN(C)CCN(C)c1cc(-c2cc3c4c(c2)ncn4CCO3)c2nc[nH]c2c1C(N)=O [Example 165]	3.34
CCn1cnc2cc(-c3cc(N(C)CCN(C)C)c(C(N)=O)c4[nH]cnc34)cc(OC)c21 [Example 152]	3.34
CCN(CC)CCN(C)c1cc(-c2ccc3c(c2)ncn3C2CCCCC2)c2nc[nH]c2c1C(N)=O [Example 130]	2.90
